The reader will find pIC50 measurements below, all made with Rhodesain (Trypanosoma brucei rhodesiense, UniProt Q95PM0).
Sequence (Q95PM0 whole entry): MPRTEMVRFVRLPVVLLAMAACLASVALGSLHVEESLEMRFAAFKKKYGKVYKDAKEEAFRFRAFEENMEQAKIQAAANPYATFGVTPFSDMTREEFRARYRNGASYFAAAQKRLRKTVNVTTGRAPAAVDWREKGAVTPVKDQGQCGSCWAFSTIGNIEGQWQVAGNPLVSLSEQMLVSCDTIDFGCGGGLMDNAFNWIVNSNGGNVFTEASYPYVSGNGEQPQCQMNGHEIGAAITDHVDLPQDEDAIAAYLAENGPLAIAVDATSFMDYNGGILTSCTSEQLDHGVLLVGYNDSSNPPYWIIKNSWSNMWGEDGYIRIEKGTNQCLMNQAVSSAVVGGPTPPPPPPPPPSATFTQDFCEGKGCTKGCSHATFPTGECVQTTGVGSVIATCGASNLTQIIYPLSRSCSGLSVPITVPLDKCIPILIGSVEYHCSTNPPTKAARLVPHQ
pIC50: −log10 of the molar value.
Parameter: pIC50

                           structure_smiles  inequality_sign  recorded_value
0  COc1ccc(-c2cccc(CNc3nc(C#N)nc4c3ncn4CCCO)c2)cc1                =            6.10
1  COC(=O)c1ccc(-c2cccc(CNc3nc(C#N)nc4c3ncn4CCCO)c2)cc1                =            5.92
2  COc1ncc(-c2cccc(CNc3nc(C#N)nc4c3ncn4CCCO)c2)c(OC)n1                =            5.40
3  N#Cc1nc(NCc2cccc(-c3ccsc3)c2)c2ncn(CCCO)c2n1                =            6.62
4  N#Cc1nc(NCc2cccc(-c3ccc(Cl)cc3)c2)c2ncn(CCCO)c2n1                =            5.85
5  Cc1cccc(C)c1-c1cccc(CNc2nc(C#N)nc3c2ncn3CCCO)c1                <            4.82
6  N#Cc1nc(NCc2cccc(-c3cccs3)c2)c2ncn(CCCO)c2n1                =            6.10
7  N#Cc1nc(NCc2cccc(-c3cn(S(=O)(=O)c4ccccc4)c4ccccc34)c2)c2ncn(CCCO)c2n1                =            5.70

----------
# Measured On: Procathepsin L (Homo sapiens, UniProt P07711)
# Sequence (P07711 whole entry): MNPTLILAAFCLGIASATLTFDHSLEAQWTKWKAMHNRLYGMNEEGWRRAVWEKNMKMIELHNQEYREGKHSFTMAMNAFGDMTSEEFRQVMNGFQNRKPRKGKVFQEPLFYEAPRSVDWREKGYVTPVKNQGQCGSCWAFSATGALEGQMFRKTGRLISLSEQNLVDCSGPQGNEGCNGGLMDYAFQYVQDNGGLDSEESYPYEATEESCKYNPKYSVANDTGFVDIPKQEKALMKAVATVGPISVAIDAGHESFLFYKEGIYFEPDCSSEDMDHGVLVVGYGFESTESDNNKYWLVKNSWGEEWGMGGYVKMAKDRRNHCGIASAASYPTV
# label = yes (1) if IC50 < 1000 nM else no (0)

>>> df
                            structure_smiles  label_value
 0  N#Cc1nc(NCc2cccc(-c3ccc4[nH]ccc4c3)c2)c2ncn(CCCO)c2n1      yes (1)
 1  N#Cc1nc(NCc2cccc(-c3ccccc3C(F)(F)F)c2)c2ncn(CCCO)c2n1       no (0)
 2  N#Cc1nc(NCc2cccc(-c3ccc4cc[nH]c4c3)c2)c2ncn(CCCO)c2n1      yes (1)
 3  N#Cc1nc(NCc2cccc(-c3ccsc3)c2)c2ncn(CCCO)c2n1      yes (1)
 4  N#Cc1nc(NCc2cccc(-c3cc4ccccc4n3S(=O)(=O)c3ccccc3)c2)c2ncn(CCCO)c2n1       no (0)
 5  COc1ccc(-c2cccc(CNc3nc(C#N)nc4c3ncn4CCCO)c2)cc1       no (0)
 6  N#Cc1nc(NCc2cccc(-c3ccccc3)c2)c2ncn(CCCO)c2n1      yes (1)
 7  C=Cc1ccc(-c2cccc(CNc3nc(C#N)nc4c3ncn4CCCO)c2)cc1       no (0)
 8  N#Cc1nc(NCc2cccc(-c3ccc(Cl)cc3)c2)c2ncn(CCCO)c2n1       no (0)
 9  N#Cc1nc(NCc2cccc(-c3ccc4ccccc4c3)c2)c2ncn(CCCO)c2n1      yes (1)
10  CC(C)Oc1c(Br)cccc1-c1cccc(CNc2nc(C#N)nc3c2ncn3CCCO)c1       no (0)
11  Cc1ccccc1-c1cccc(CNc2nc(C#N)nc3c2ncn3CCCO)c1       no (0)
12  N#Cc1nc(NCc2cccc(-c3ccoc3)c2)c2ncn(CCCO)c2n1      yes (1)
13  N#Cc1nc(NCc2cccc(-c3cccnc3)c2)c2ncn(CCCO)c2n1       no (0)
14  N#Cc1nc(NCc2cccc(-c3c(F)c(F)c(F)c(F)c3F)c2)c2ncn(CCCO)c2n1       no (0)
15  COC(=O)c1ccc(-c2cccc(CNc3nc(C#N)nc4c3ncn4CCCO)c2)cc1       no (0)
16  N#Cc1nc(NCc2cccc(-c3ccccc3Cl)c2)c2ncn(CCCO)c2n1       no (0)
17  N#Cc1nc(NCc2cccc(-c3ccc(Cl)c(Cl)c3)c2)c2ncn(CCCO)c2n1       no (0)
